B1: Hairpin Ribozyme (parent)
chain: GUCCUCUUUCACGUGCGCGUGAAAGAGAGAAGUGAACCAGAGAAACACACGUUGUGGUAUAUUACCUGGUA

Variants of: B1
Assay: self-cleavage, relative activity (ratio to wild type); higher = more cleavage; co-transcriptional
Exercise: for every item that follows, state its recorded self-cleavage.

Please fill in: self-cleavage reported for G25A C38A = 0.173

Please fill in: self-cleavage reported for U52A A71G = 1.12

Please fill in: self-cleavage reported for A49C U62A = 0.15

Please fill in: self-cleavage reported for G34A U55C = 0.487

Please fill in: self-cleavage reported for U20C G42C = 0.313

Please fill in: self-cleavage reported for C46U C65G = 0.087

Please fill in: self-cleavage reported for G42C U62G = 0.0896

Please fill in: self-cleavage reported for G21U U67A = 0.088

Please fill in: self-cleavage reported for A44U C66U = 0.222

Please fill in: self-cleavage reported for A47G C48A = 0.122

Please fill in: self-cleavage reported for U14G C37G = 0.276
